Measured FACS fluorescence by item
target: human Claudin-6 (CLDN6) (human) (UniProt P56747); assay: FACS, 0.3 ug Ab, 293T clone expressing human CLDN6 (2nd Ab only 768.07)
Lab note: jot down the number only; don't add units.

See these solved cases before continuing.
[
  {
    "binder": "AB3-2 (antibody, V domains shown, humanized) VH: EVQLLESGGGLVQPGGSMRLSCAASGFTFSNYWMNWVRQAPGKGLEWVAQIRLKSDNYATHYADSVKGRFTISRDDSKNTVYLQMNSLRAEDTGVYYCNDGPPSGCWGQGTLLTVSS VL: DIQMTQSPSSLSASVGDRVTITCRISENIYSYLAWYQQKPGKAPKLLIYNAKILVEGVPSRFSGSGSGTDFTLTISSLQPEDFATYYCQHHYTVPWTFGQGTKLEIK",
    "FACS fluorescence": 309000
  },
  {
    "binder": "AB9-chim (antibody, V domains shown) VH: EVQLQQSGPELVKPGASVKMSCKASGYRFTDYNMHWVKQSHGKSLEWIGYINPNNGGTNYNQNFKGKATLTVNKSSSTAYMELRSLTSEDSAAYYCARDYLYFFDCWGQGTTLTVSS VL: DIQMTQSPASQSASLGESVTITCLASQTIGTWLAWYQQKPGKSPQLLIYAAASLADGVPSRFSGSGSGTRFSFKISSLQAEDFVSYYCQQLYSIPRTFGGGTKLEIK",
    "FACS fluorescence": 46700
  },
  {
    "binder": "AB4-8 (antibody, V domains shown, humanized) VH: QVQLVQSGAEVKKPGASVKVSCKASGYTFTSYTMHWVRQAPGQGLEWMGYINPSSTYTHYIKKFKDRVTMTADTSTSTVYMELSSLRSEDTAVYYCSRGELGGFAYWGQGTLVTVSS VL: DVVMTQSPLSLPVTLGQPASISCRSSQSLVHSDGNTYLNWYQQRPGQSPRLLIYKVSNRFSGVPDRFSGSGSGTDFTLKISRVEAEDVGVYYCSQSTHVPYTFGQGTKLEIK",
    "FACS fluorescence": 49300
  },
  {
    "binder": "AB1-4 (antibody, V domains shown, humanized) VH: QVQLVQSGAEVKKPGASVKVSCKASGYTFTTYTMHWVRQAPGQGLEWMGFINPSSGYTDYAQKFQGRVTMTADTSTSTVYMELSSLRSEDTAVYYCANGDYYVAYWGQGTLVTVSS VL: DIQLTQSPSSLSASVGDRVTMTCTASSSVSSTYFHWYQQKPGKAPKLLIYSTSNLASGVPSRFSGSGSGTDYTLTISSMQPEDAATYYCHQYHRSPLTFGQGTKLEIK",
    "FACS fluorescence": 102000
  }
]

Return FACS fluorescence for the following binder: AB4-5 (antibody, V domains shown, humanized) VH: QVQLVQSGAEVKKPGASVKMSCKASGYTFTSYTMHWIRQAPGQGQEWIGYINPSSTYTHYAQKFQGRATLTADTSTSTAYMELSSLRSEDTAVYYCSRGELGGFAYWGQGTLVTVSS VL: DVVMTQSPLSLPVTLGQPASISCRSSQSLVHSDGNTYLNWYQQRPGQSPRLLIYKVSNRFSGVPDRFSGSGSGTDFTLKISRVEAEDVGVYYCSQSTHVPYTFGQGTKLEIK
16800
